Where do these numbers come from? They come from ChEMBL document CHEMBL1141727.

tested on: MDA-MB-435; test: Growth inhibition of human MDA-MB-435 cells; format: functional
parameter: GI50

C=C1CCCC(C)(C)C1CCC1(C)CC[C@H]([C@@H](C)C(=O)O)OO1 (single isomer, unassigned)
2.69 µM

Consider the record given below.
IN: Could you share which GI50 value was measured for COC(=O)[C@H](C)[C@H]1CC[C@@](C)(CCC2=C(C)CCCC2(C)C)OO1 ?
OUT: > 25 µM

====

tested on: COLO 205; assay: Growth inhibition of human COLO205 cells; assay type: functional
parameter: GI50 (µM)
Express your answer in µM, writing the number without its unit.

Consider the reported GI50 for these molecules:
C=C1CCCC(C)(C)C1CCC1(C)CC[C@H]([C@@H](C)C(=O)O)OO1 (single isomer, unassigned)
8.31
C=C1CCC[C@H]2[C@](C)(CC[C@]3(C)CC[C@H]([C@@H](C)C(=O)O)OO3)[C@@H](C)CC[C@]12C
2.18
C=C1CCC[C@H]2[C@](C)(CC[C@]3(C)CC[C@@H]([C@@H](C)C(=O)O)OO3)[C@@H](C)CC[C@]12C
0.97

Consider the record given below.
IN: Could you share which GI50 value was measured for C=C1CCCC(C)(C)C1CC[C@]1(C)CC[C@H]([C@@H](C)C(=O)OC)OO1 (stereo not given in full) ?
OUT: 4.54

====

experiment: Growth inhibition of mouse M17/ADR cells assessed as zone units at 50 ug/disk by disk diffusion agar colony formation assay; assay type: functional
Activity values, listed per item
Express your answer in Zone units, writing the number without its unit.

C=C1CCCC(C)(C)C1CC[C@]1(C)CC[C@@H]([C@@H](C)C(=O)O)OO1 (stereo not given in full) [EPINUAPAPUIN B]
210
CC1=C(CC/C(C)=C/CC[C@@]2(C)CC[C@@H]([C@H](C)C(=O)O)OO2)C(C)(C)CCC1 [EPIMUQUBILIN A]
70

IN: Could you share which Activity value was measured for C=C1CCC[C@H]2[C@](C)(CCC(C)=O)[C@@H](C)CC[C@]12C ?
OUT: 0

IN: What do we get for C=C1CCC[C@H]2[C@](C)(CC[C@]3(C)CC[C@H]([C@@H](C)C(=O)O)OO3)[C@@H](C)CC[C@]12C ?
OUT: 290

IN: What do we get for C=C1CCC[C@H]2[C@](C)(CC[C@]3(C)CC[C@@H]([C@@H](C)C(=O)O)OO3)[C@@H](C)CC[C@]12C ?
OUT: 220

====

GI50 values, listed per item
tested on: BT-549; assay: Growth inhibition of human BT549 cells; assay type: functional
Express your answer in µM, writing the number without its unit.

C=C1CCC[C@H]2[C@](C)(CC[C@]3(C)CC[C@@H]([C@@H](C)C(=O)O)OO3)[C@@H](C)CC[C@]12C
0.96
C=C1CCC[C@H]2[C@](C)(CC[C@]3(C)CC[C@H]([C@@H](C)C(=O)O)OO3)[C@@H](C)CC[C@]12C
1.81
C=C1CCCC(C)(C)C1CC[C@]1(C)CC[C@H]([C@@H](C)C(=O)OC)OO1 (some centres undefined)
4.95

IN: Could you share which GI50 value was measured for C=C1CCCC(C)(C)C1CCC1(C)CC[C@H]([C@@H](C)C(=O)O)OO1 (single isomer, unassigned) ?
OUT: 1.05
